// data source = patent US11760722B2

Tested on: SARS-CoV-2 Delta USA/MD-HP05647/2021 (Lineage B.1.617.2)
Assay: microbe, parasite or virus in culture
Assay type: cell-based
Conditions: Severe acute respiratory syndrome coronavirus 2, Vero C1008, 4 h; read-out: Vero E6 Delta CPE/EC50
measurement.label: EC50 (nM)
# number only, unit nM dropped from output

CC1(C)[C@@H]2[C@@H](C(=O)N[C@H](C#N)C[C@@H]3CCNC3=O)N(C(=O)[C@@H](NC(=O)C(F)(F)F)C34CC(C3)C4)C[C@@H]21 [Compound 50]
571
Cc1csc(S(=O)(=O)N[C@H](C(=O)N2C[C@H]3[C@@H]([C@H]2C(=O)N[C@H](C#N)C[C@@H]2CCNC2=O)C3(C)C)C(C)(C)C)c1 [Compound 112]
63.4
CC(C)(C)[C@H](NC(=O)C(F)(F)C(F)(F)Cl)C(=O)N1C[C@H]2[C@@H]([C@H]1C(=O)N[C@H](C#N)C[C@@H]1CCNC1=O)C2(C)C [Compound 80]
20.2

Data request, read-out EC50, for COc1ccc(S(=O)(=O)N[C@H](C(=O)N2C[C@H]3[C@@H]([C@H]2C(=O)N[C@H](C#N)C[C@@H]2CCNC2=O)C3(C)C)C(C)(C)C)cc1 [Compound 101]
0.31

----------
Test system: SARS-CoV-2 Delta USA/MD-HP05647/2021 (Lineage B.1.617.2)
Test: microbe, parasite or virus in culture
Type: cell-based
Conditions: Severe acute respiratory syndrome coronavirus 2, Vero C1008, 4 h; read-out: Vero E6 Delta CPE/EC50
measurement.label: EC50 (nM)
# number only, unit nM dropped from output

Below, 3 compounds whose answers are already recorded.
CC(C)(C)[C@H](NC(=S)NC1CC1)C(=O)N1C[C@H]2[C@@H]([C@H]1C(=O)N[C@H](C#N)C[C@@H]1CCNC1=O)C2(C)C
834
CC(C)(C)[C@H](NS(=O)(=O)c1sccc1Cl)C(=O)N1C[C@H]2[C@@H]([C@H]1C(=O)N[C@H](C#N)C[C@@H]1CCNC1=O)C2(C)C
16.4
CC(C)(C)[C@H](NC(=O)C(F)(F)C(F)(F)C(F)(F)F)C(=O)N1C[C@H]2[C@@H]([C@H]1C(=O)N[C@H](C#N)C[C@@H]1CCNC1=O)C2(C)C
437

Data request, read-out EC50, for CC(C)(C)[C@H](NC(=O)C1(C(F)(F)F)CC1)C(=O)N1C[C@H]2[C@@H]([C@H]1C(=O)N[C@H](C#N)C[C@@H]1CCNC1=O)C2(C)C
1630

Data request, read-out EC50, for CC(C)(C)[C@H](NS(=O)(=O)c1ccc(F)c(F)c1)C(=O)N1C[C@H]2[C@@H]([C@H]1C(=O)N[C@H](C#N)C[C@@H]1CCNC1=O)C2(C)C
22.2

----------
Test system: SARS-CoV-2 Delta USA/MD-HP05647/2021 (Lineage B.1.617.2)
Experiment: microbe, parasite or virus in culture
Type: cell-based
Details: Severe acute respiratory syndrome coronavirus 2, Vero C1008, 4 h; read-out: Vero E6 Delta CPE/EC50
pEC50: −log10 of the molar value.
Below, each of the molecules is paired with its reported pEC50 value.

Data request, read-out pEC50, for CC(C)(C)[C@H](NS(=O)(=O)c1cc2ccccc2s1)C(=O)N1C[C@H]2[C@@H]([C@H]1C(=O)N[C@H](C#N)C[C@@H]1CCNC1=O)C2(C)C
> 8.35

Data request, read-out pEC50, for CC(C)(C)[C@H](NS(=O)(=O)c1ccc2ccccc2c1)C(=O)N1C[C@H]2[C@@H]([C@H]1C(=O)N[C@H](C#N)C[C@@H]1CCNC1=O)C2(C)C
> 8.35

Data request, read-out pEC50, for CC(C)(C)[C@H](NS(=O)(=O)c1ccc(C2CC2)cc1)C(=O)N1C[C@H]2[C@@H]([C@H]1C(=O)N[C@H](C#N)C[C@@H]1CCNC1=O)C2(C)C
> 8.35
